Origin of values: ChEMBL document CHEMBL5442219

- assayed target: Alpha-1D adrenergic receptor (Homo sapiens) (UniProt P25100)
- Sequence (P25100 whole entry): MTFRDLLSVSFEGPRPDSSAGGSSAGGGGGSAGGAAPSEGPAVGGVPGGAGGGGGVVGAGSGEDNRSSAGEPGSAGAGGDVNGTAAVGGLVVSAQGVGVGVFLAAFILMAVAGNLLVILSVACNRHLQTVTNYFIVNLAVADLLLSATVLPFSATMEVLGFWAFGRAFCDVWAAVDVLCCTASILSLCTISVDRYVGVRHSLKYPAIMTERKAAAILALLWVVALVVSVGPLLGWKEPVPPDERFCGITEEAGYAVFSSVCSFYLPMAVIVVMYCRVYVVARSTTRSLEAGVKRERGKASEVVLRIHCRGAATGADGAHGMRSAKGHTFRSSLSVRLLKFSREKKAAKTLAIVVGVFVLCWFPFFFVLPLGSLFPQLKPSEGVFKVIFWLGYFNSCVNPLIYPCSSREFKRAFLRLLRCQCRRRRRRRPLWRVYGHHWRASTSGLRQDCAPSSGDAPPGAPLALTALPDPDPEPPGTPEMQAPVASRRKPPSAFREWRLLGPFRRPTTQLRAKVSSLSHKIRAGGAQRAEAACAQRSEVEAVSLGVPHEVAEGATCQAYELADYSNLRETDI
- assay context: Compound concentration 10 µM; call rule not given here
Possible outcomes: active, inactive

CCC(=O)NCC[C@@H]1CCc2ccc3c(c21)CCO3 ... inactive
N#Cc1c(N)nc(SCC(N)=O)c(C#N)c1-c1ccc(OCC2CC2)cc1 ... inactive
CCCCC#Cc1nc(NC)c2ncn([C@@H]3O[C@H](CO)[C@@H](O)[C@H]3O)c2n1 ... inactive
NCCc1c[nH]c2ccc(C(N)=O)cc12 ... inactive
COc1ccc(NS(=O)(=O)c2sc3ccc(Cl)cc3c2C)cc1N1CCNCC1 ... inactive
CN1CCN(c2ccc(Nc3c4ccccc4nc4ccccc34)cc2)CC1 ... active
COc1cc2c(CCNC(C)=O)c[nH]c2cc1Cl ... inactive
O=C(Cc1ccc(Cl)c(Cl)c1)N1CCCC[C@H]1CN1CCCC1 ... inactive
O=C(O)c1cc(-c2ccc(C3CCNCC3)cc2)c2ccc(-c3ccc(C(F)(F)F)cc3)cc2c1 ... inactive
COc1ccc(OC(F)(F)F)cc1CN[C@H]1CCCN[C@H]1c1ccccc1 ... inactive
Cc1cn2cc(CC(=O)N3CCC4(CC3)CN(Cc3ccc(-n5nccn5)cc3Cl)C4)nc2s1 ... inactive
Oc1ccc2c3c1O[C@H]1c4[nH]c5c(c4C[C@@]4(O)[C@@H](C2)N(CC2CC2)CC[C@]314)C[C@@]1(O)[C@H]2Cc3ccc(O)c4c3[C@@]1(CCN2CC1CC1)[C@H]5O4 ... inactive
CN1CC(=O)N=C1NC(=O)Nc1cccc(Cl)c1 ... inactive
CCc1nn(CCCN2CCN(c3cccc(Cl)c3)CC2)c(=O)n1CCOc1ccccc1 ... active
Cc1nc(C#Cc2ccnc(Cl)c2)c(C)n1-c1ccc(OC(F)(F)F)cc1 ... inactive
CC(C)NCC(O)COc1cccc2[nH]ccc12 (stereo unspecified) ... inactive
CN1CCC(C(=O)c2cccc(NC(=O)c3c(F)cc(F)cc3F)n2)CC1 ... inactive
Brc1c(NC2=NCCN2)ccc2nccnc12 ... active
COc1cc(-n2cnc3cc(-c4ccc(Cl)cc4)sc3c2=O)ccc1OCCN1CCCC1 ... active
Cc1ccc2c(c1)c1c(n2CCc2ccc(C)nc2)CCN(C)C1 ... active
CN1C(=O)[C@@H](NC(=O)c2cc3ccccc3[nH]2)N=C(c2ccccc2)c2ccccc21 ... inactive
